applied_conditions: a range is the spread between reports
Recorded measurements of melting point, one per entry

Examples with their reported melting point follow.
{"smiles_notation": "Oc1cc(O)c(Cl)cc1Cl", "melting point": "113 to 115 °C"}
{"smiles_notation": "Cc1ccc(C(C)C)c(O)c1", "melting point": "49 to 51.5 °C"}
{"smiles_notation": "N#Cc1cccc(O)c1", "melting point": "79.5 to 82 °C"}
{"smiles_notation": "Oc1ccc(Br)cc1Br", "melting point": "37 to 40 °C"}
{"smiles_notation": "NC(=O)c1ccc(-c2ccccc2)cc1", "melting point": "223 to 228 °C"}

Qu. What does the data say about its melting point? Entry: CCN(CC)CC
Ans. -115 °C

Qu. What does the data say about its melting point? Entry: O=C(O)CCCCc1ccccc1
Ans. 57.5 to 59 °C

Qu. What does the data say about its melting point? Entry: Nc1cccc2ccc(O)cc12
Ans. 206 to 208 °C

====

Recorded measurements of melting point, one per entry
applied_conditions: a range is the spread between reports

Examples with their reported melting point follow.
{"molecule": "O=Cc1c(Cl)cccc1Cl", "readout_value": "70.5 to 71.5 °C"}
{"molecule": "CCCCCCCC/C=C\\CCCCCCCCCCCC(N)=O", "readout_value": "77.5 to 79 °C"}
{"molecule": "O=C(O)c1c(F)cccc1Cl", "readout_value": "158 to 160 °C"}

Qu. What does the data say about its melting point? Entry: c1ccc(-c2ccccc2)cc1
Ans. 69 to 71 °C

Qu. What does the data say about its melting point? Entry: CCOc1ccccc1C(=O)O
Ans. 20 to 20.7 °C

Qu. What does the data say about its melting point? Entry: Brc1ccc(I)cc1
Ans. 91 to 92 °C

Qu. What does the data say about its melting point? Entry: CC12CCC(=O)C=C1CCC1C2C(=O)CC2(C)C1CCC2(O)C(=O)CO (configuration not stated)
Ans. 222 to 226 °C

====

applied_conditions: a range is the spread between reports
outcome_measure: melting point

Examples with their reported melting point follow.
{"compound": "CCC(=O)c1ccc(O)cc1O", "readout_value": "99 to 100 °C"}
{"compound": "CCCCCCCCCCCCCCCCCCS", "readout_value": "30 to 32 °C"}
{"compound": "COc1ccc(Br)c(OC)c1", "readout_value": "25 to 26 °C"}
{"compound": "CCCCC(C)CCCC", "readout_value": "-88 to -87.7 °C"}
{"compound": "O=C1c2ccccc2C(=O)c2ccccc21", "readout_value": "284 to 286 °C"}

Qu. What does the data say about its melting point? Entry: C1OCOCO1
Ans. 60.2 to 61 °C

Qu. What does the data say about its melting point? Entry: O=C(O)c1ccc([N+](=O)[O-])c(O)c1
Ans. 230 to 234 °C

Qu. What does the data say about its melting point? Entry: ON=C1CCCCC1
Ans. 89 to 90 °C

Qu. What does the data say about its melting point? Entry: Cc1ccc(C(=O)c2ccc(C)cc2)cc1
Ans. 94 to 96.5 °C

Qu. What does the data say about its melting point? Entry: COc1ccccc1N
Ans. 5 to 6.2 °C

Qu. What does the data say about its melting point? Entry: CC(=O)Nc1cccc(O)c1
Ans. 146 to 148 °C

Qu. What does the data say about its melting point? Entry: N#Cc1cccnc1
Ans. 50 to 51 °C

Qu. What does the data say about its melting point? Entry: Cc1ccc(-c2ccc(C)cc2)cc1
Ans. 120 to 121 °C

Qu. What does the data say about its melting point? Entry: S=C1NCCS1
Ans. 105 to 106 °C

Qu. What does the data say about its melting point? Entry: Nc1ccccc1Nc1ccccc1
Ans. 79 to 79.5 °C
